I'd appreciate it if you could supply TGI values for the items below.
- Tested on: NCI/ADR-RES
- Assay remarks: Antiproliferative activity against human NCI/ADR-RES cells assessed as tumor growth inhibition after 48 hrs by sulforhodamine B assay
- Assay type: functional
Hi! Could you send only the number? It should be in µg/mL, unit omitted.

Tell me measured TGI for "CCCCCCCCCCCCCCCCCC(=O)N1CCCC1" please. 43.5

Tell me measured TGI for "CCCCCC[C@@H](O)C/C=C\CCCCCCCC(=O)N1CCCC1" please. 4

Tell me measured TGI for "CCCCCCCC/C=C\CCCCCCCC(=O)N[C@H](C)c1ccccc1" please. 35.3

Tell me measured TGI for "CCCCCCCC/C=C\CCCCCCCC(=O)N1CCCC1" please. 5.6

Tell me measured TGI for "CCCCCCCC/C=C\CCCCCCCC(=O)N[C@@H](C)c1ccccc1" please. 7.1

Tell me measured TGI for "CCCCCCCC/C=C\CCCCCCCC(=O)N1CCCCC1" please. 47.4

Tell me measured TGI for "CCCCCC[C@@H](O)C/C=C\CCCCCCCC(=O)NCc1ccccc1" please. 46.6

Tell me measured TGI for "CCCCC/C=C\C/C=C\CCCCCCCC(=O)N1CCCCC1" please. 63.2

Tell me measured TGI for "CCCCCCCCCCCCCCCC(=O)N1CCCC1" please. 30

Tell me measured TGI for "COc1cccc2c1C(=O)c1c(O)c3c(c(O)c1C2=O)C[C@@](O)(C(=O)CO)C[C@@H]3O[C@H]1C[C@H](N)[C@H](O)[C@H](C)O1" please. 1.6

Tell me measured TGI for "CCCCCC[C@@H](O)C/C=C\CCCCCCCC(=O)N1CCOCC1" please. 143

Tell me measured TGI for "CCCCC/C=C\C/C=C\CCCCCCCC(=O)N1CCCC1" please. 7.7

Tell me measured TGI for "CCCCCCCCCCCCCCCC(=O)N1CCOCC1" please. 70.3

Tell me measured TGI for "CCCCCCCCCCCCCCCCCC(=O)N1CCOCC1" please. 86.9

Tell me measured TGI for CCCCCCCC/C=C\CCCCCCCC(=O)NCCO [OLEOYLETHANOLAMIDE] please. 39.5

Tell me measured TGI for "CCCCCC[C@@H](O)C/C=C\CCCCCCCC(=O)NCCO" please. 5.4

Tell me measured TGI for "CCCCC/C=C\C/C=C\CCCCCCCC(=O)N[C@@H](C)c1ccccc1" please. 16.4

Tell me measured TGI for "CCCCCCCC/C=C\CCCCCCCC(=O)N1CCOCC1" please. 10.6

Tell me measured TGI for "CCCCCC[C@@H](O)C/C=C\CCCCCCCC(=O)N1CCCCC1" please. 22.7
